- System: Escherichia coli EC14
- method.notes: Agar dilution antibacterial test (MIC)
- Format: cell-based
- protocol.conditions: read-out: MIC
Entries and their measured MIC follow.

| compound.smiles | unit.abbrev | MIC |
| --- | --- | --- |
| N[C@@H](C(=O)N[C@@H]1C(=O)N2C(C(=O)O)=C(C(F)(F)F)CC[C@H]12)c1ccc(O)cc1 | µg/mL | 0.48 |
| N[C@@H](C(=O)N[C@@H]1C(=O)N2C(C(=O)O)=C(C(F)(F)F)CC[C@H]12)c1ccccc1 | µg/mL | 0.5 |
| N[C@@H](C(=O)N[C@@H]1C(=O)N2C(C(=O)O)=C(C(F)(F)F)CC[C@H]12)c1ccc(F)cc1 | µg/mL | 1 |
| N[C@@H](C(=O)N[C@@H]1C(=O)N2C(C(=O)O)=C(C(F)(F)F)CC[C@H]12)c1cccc(Br)c1 | µg/mL | 4 |
| N[C@@H](C(=O)N[C@@H]1C(=O)N2C(C(=O)O)=C(C(F)(F)F)CC[C@H]12)c1cccc(F)c1 | µg/mL | 4 |

Hello, the source for this data is patent US5099015A, in case you need it.
